# Test system: Oocyte
# assay: Inhibition of influenza A virus A/WSN/33-M2-N31S (H1N1) M2 transmembrane domain V28I mutant expressed in Xenopus laevis oocytes assessed as inhibition of channel current at 100 uM measured after 2 mins by two-electrode voltage clamp assay relative to control
# Assay type: cell-based
Recorded inhibition, one value per entry.
Answer with a number only, understood to be in %.

Task item: Given "C[C@@H](N)C12CC3CC(CC(C3)C1)C2" , respond with its inhibition.
Reply: 71

Task item: Given "C[C@H](N)C12CC3CC(CC(C3)C1)C2" , respond with its inhibition.
Reply: 78

Task item: Given CC(N)C12CC3CC(CC(C3)C1)C2 (racemic) , respond with its inhibition.
Reply: 84

Task item: Given "CC(C)(N)C12CC3CC(CC(C3)C1)C2" , respond with its inhibition.
Reply: 56
